# maps each entry to its HEPES (Log10 CFU/mL), 1 hr
System: P. aeruginosa strain WC-453
Assay: Time-kill assay in HEPES or CAA with 25% human serum (Tables 7, 8)
Assay type: cell-based, Pseudomonas aeruginosa
Conditions: 25 mM HEPES pH 7.4; lysin 10 μg/ml; 1 hr; WC-453

QUERY: Item GN65: Lysin GN65, used as control (protein, (1)..(264) GN316 lysin) MAILKIGSKGLEVKNLQTSLNKIGFNLVADGIFGKATDNAVRAVQAGAGLVVDGIAGPKTMYAIRNAGESHQDHLTEADLIDAARELSVDLASIKAVNQVESRGTGFTKSGKIKTLFERHIMYKKLNAKFGQAKANALAQLYPTLVNAKAGGYTGGDAELERLHGAIAIDKDCAYESASYGLFQIMGFNCVICGYDNAEEMFNDFLTGERAQLMAFVKFIKADANLWKALKDKNWAEFARRYNGPAYAQNQYDTKLAAAYKSFS has what recorded HEPES (Log10 CFU/mL), 1 hr?
RESULT: 5.7 Log10 CFU/mL

QUERY: Item GN121: variant lysin (SEQ ID NO: 175), also disclosed in WO 2019/118632 (protein) MTYTLSKRSLDNLKGVHPDLVAVVHRAIQLTPVDFAVIEGLRSVSRQKELVAAGASKTMNSRHLTGHAVDLAAYVNGIRWDWPLYDAIAVAVKAAAKELGVAIVWGGDWTTFKDGPHFELDRSKYRRKKTRKRLKKIGKVLKWI has what recorded HEPES (Log10 CFU/mL), 1 hr?
RESULT: <3.7 Log10 CFU/mL

QUERY: Item GN40: lysin obtained from Pseudomonas putida strain PA14H7 (SEQ ID NO: 210) (protein, listed as Micavibrio aeruginosavorus) MFRPSYILPGVAAVMLLASTAAHAAGYEWKRVDYQYLQSVSEKERGMLRIYKDYEEREPCQNYRELPPEVKYVDCKLYHRVAIPDPPPPPAPPPAPEPPKVVSSYEIFFPLDSTALDLQANAMVDKAAADIALYQPSTVIVAGYTDTSGAADYNDQLSANRAMAVSAALSQRGIPNTAMDLEAHGQNDLKVPTADDVHEPQNRRTVIHFMK has what recorded HEPES (Log10 CFU/mL), 1 hr?
RESULT: 7.0 Log10 CFU/mL

QUERY: Item GN14: lysin obtained from Pseudomonas phage Lull (SEQ ID NO: 124) (protein) NNELPWVAEARKYIGLREDTSKTSHNPKLLAMLDRMGEFSNESRAWWHDDETPWCGLFVGYCLGVAGRYVVREWYRARAWEAPQLTKLDRPAYGALVTFTRSGGGHVGFIVGKDARGNLMVLGGNQSNAVSIAPFAVSRVTGYFWPSFWRNKTAVKSVPFEERYSLPLLKSNGELSTNEA has what recorded HEPES (Log10 CFU/mL), 1 hr?
RESULT: <3.7 Log10 CFU/mL

Reference source for all entries: patent US20210324359A1
